Biological target: WT-TTR (Homo sapiens)
Construct: made in house
Experiment: Stagnant acid-mediated TTR aggregation (fibril formation) assay, turbidity at 340 nm
Format: biochemical
Method: Stagnant Acid-Mediated TTR Aggregation Assay. After 1 h, the samples were diluted with 0.5 ml of 200 mM sodium acetate buffer containing 100 mM KCl and 1 mM EDTA. […] The extent of aggregation was probed by turbidity measurements at 340 nm using Tecan GENios microplate reader. […] The IC50 was determined by plotting mean of % inhibition vs log and fitted to sigmoid equation: […]
pIC50: −log10 of the molar value.
assay.readout: pIC50

Need pIC50 of COc1cc(CCl)ccc1Oc1ccc(Cl)cc1Cl , thanks.
5.46 to 6.33

----------
Measured inhibition at 21.6 µM by item
biological target: TTR (Homo sapiens, UniProt P02766); construct: made in house; test: Time course (kinetics) of fibril formation, turbidity at 340 nm for 3 h; format: biochemical; details: TTR 7.2 μM, inhibitor 21.6 μM, 37° C., pH 4.4, 3 h

// below: answered molecules
INSERT INTO assay_data (molecule, test_target, assay_readout, value_observed) VALUES
  ('Oc1cc(CCl)ccc1Oc1ccc(Cl)cc1Cl', 'TTR (Homo sapiens, UniProt P02766)', 'inhibition at 21.6 µM', '> 80%'),
  ('COc1cc(C(=O)O)ccc1Oc1ccc(Cl)cc1Cl', 'TTR (Homo sapiens, UniProt P02766)', 'inhibition at 21.6 µM', '> 80%');

Need inhibition at 21.6 µM of COc1cc(C=O)ccc1Oc1ccccc1 , thanks.
> 80%

Need inhibition at 21.6 µM of O=Cc1ccc(Oc2ccc(Cl)cc2Cl)c(O)c1 , thanks.
> 80%

Need inhibition at 21.6 µM of O=C(O)c1ccc(Oc2ccc(Cl)cc2Cl)c(O)c1 , thanks.
> 80%

Need inhibition at 21.6 µM of O=C(Nc1nnc[nH]1)c1c(Cl)ccc(Cl)c1Cl , thanks.
> 80%

Need inhibition at 21.6 µM of Oc1cc(Cl)ccc1Oc1ccc(Cl)cc1Cl [Compound 1, Triclosan, reference compound] , thanks.
62%

Need inhibition at 21.6 µM of COc1cc(CCl)ccc1Oc1ccccc1 [Compound 8, 3-Methoxy-4-phenoxybenzyl chloride] , thanks.
> 80%

Need inhibition at 21.6 µM of Oc1ccccc1-c1nnc(S)o1 , thanks.
> 80%

Need inhibition at 21.6 µM of OCc1ccc(Oc2ccc(Cl)cc2Cl)c(O)c1 , thanks.
> 80%

Need inhibition at 21.6 µM of N[C@H](Cc1cc(I)c(Oc2cc(I)c(O)c(I)c2)c(I)c1)C(=O)O (stereo in doubt) [Compound 13, thyroxine, reference compound] , thanks.
75%

Need inhibition at 21.6 µM of COc1cc(CCl)ccc1Oc1ccc(Cl)cc1Cl , thanks.
> 80%

----------
Biological target: WT-TTR (Homo sapiens)
Construct: made in house
Test: Stagnant acid-mediated TTR aggregation (fibril formation) assay, turbidity at 340 nm
Type: biochemical
Conditions: 72 h, pH 4.4, compound 100 μM, WT-TTR 7.2 μM, pH 4.4, 37° C.; read-out: % FF
Procedure: Stagnant Acid-Mediated TTR Aggregation Assay. After 1 h, the samples were diluted with 0.5 ml of 200 mM sodium acetate buffer containing 100 mM KCl and 1 mM EDTA. […] The extent of aggregation was probed by turbidity measurements at 340 nm using Tecan GENios microplate reader. […] The IC50 was determined by plotting mean of % inhibition vs log and fitted to sigmoid equation: […]
assay.readout: remaining activity at 100 µM (%)
Quick reminder: number only, in %, skip the unit.

// below: answered compounds
INSERT INTO results (compound, assay_readout, value_observed) VALUES
  ('COc1ccc(NC(=S)N(CCCN2CCOCC2)Cc2cccnc2)cc1 [Compound C087-0811]', 'remaining activity at 100 µM', 98.6),
  ('Cc1ccc2nc(-c3ccc(Cl)s3)c(Nc3ccc(Cl)cc3)n2c1 [Compound C239-0730]', 'remaining activity at 100 µM', 113),
  ('FC(F)(F)c1cccc(NC(=S)N(CCCN2CCCCC2)Cc2cccs2)c1 [Compound C087-1176]', 'remaining activity at 100 µM', 86.7);

We now examine a further compound.
Test system WT-TTR (Homo sapiens); read-out remaining activity at 100 µM; what value for Cc1ccc2nc(Nc3nc(O)c4ccccc4n3)nc(C)c2c1 [Compound 5594-0187] ?
68.9
